# assayed_target: Recombinant soluble human NEP (Homo sapiens, UniProt P08473)
# Construct: Recombinant soluble human NEP; purchased BioTechne, Wiesbaden, Germany
# Sequence (P08473 52-750 limits assumed): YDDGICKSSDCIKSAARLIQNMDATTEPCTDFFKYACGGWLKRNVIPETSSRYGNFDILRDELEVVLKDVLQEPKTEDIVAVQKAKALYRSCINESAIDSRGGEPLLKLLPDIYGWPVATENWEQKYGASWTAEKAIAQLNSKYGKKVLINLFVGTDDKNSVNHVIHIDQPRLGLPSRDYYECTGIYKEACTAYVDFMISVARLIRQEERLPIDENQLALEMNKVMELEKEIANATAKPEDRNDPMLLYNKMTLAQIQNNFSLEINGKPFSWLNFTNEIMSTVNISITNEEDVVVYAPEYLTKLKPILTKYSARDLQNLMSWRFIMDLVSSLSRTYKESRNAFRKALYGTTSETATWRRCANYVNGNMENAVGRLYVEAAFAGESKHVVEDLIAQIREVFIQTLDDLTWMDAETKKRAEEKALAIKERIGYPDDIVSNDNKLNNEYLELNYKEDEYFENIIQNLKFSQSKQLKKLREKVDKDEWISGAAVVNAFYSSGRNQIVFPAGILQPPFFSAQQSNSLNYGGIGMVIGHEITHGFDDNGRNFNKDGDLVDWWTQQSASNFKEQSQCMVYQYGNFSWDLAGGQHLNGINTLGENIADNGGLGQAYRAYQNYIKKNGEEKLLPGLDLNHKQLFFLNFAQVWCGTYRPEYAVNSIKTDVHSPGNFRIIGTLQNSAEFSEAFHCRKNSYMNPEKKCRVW
# test_summary: Proteolytic stability assay against NEP
# Format: in vitro ADME
# condition_label: recombinant soluble human NEP, human NEP 100 ng/mL, compound 10 µM, 37°C, LC-MS quantification, read-out: % intact compound remaining after 24h incubation
Where a SMILES comes first, the peptide text is derived from it. Bridges are numbered along the chain shown (N, C = ends). [ ]: non-standard residue; d: D form. The star is where a group is joined. DOTA = O=C(O)CN1CCN(CC(=O)O)CCN(CC(=O)*)CCN(CC(=O)O)CC1; Hyp = O=C(O)[C@@H]1C[C@@H](O)CN1; Cit = NC(=O)NCCC[C@H](N)C(=O)O; Nva = CCC[C@H](N)C(=O)O; Pentanoyl = CCCCC(=O)*; AEEA = NCCOCCOCC(=O)O
property_label: remaining at 24 h, 10 µM (%)
Enter your answer as a number in %; do not include the unit.

# molecule, remaining at 24 h, 10 µM [%]
records = [
    ("CC[C@H](C)[C@@H]1NC(=O)[C@@H](C)NC(=O)[C@@H]2CCCN2C(=O)[C@H](Cc2ccccc2)NC(=O)[C@H](Cc2ccc(O)cc2)NC(=O)[C@H](CCC(N)=O)NC(=O)[C@H](CCCNC(N)=O)NC(=O)[C@@H](NC(=O)[C@H](CC(C)C)NC(=O)COCCOCCNC(=O)CN2CCN(CC(=O)O)CCN(CC(=O)O)CCN(CC(=O)O)CC2)CSSC[C@@H](C(N)=O)NC(=O)[C@H](CC(C)C)NC1=O [UPAR-245] ({DOTA-AEEA}-LC[Cit]QYFP[dA]ILC-NH2; disulfide 2-11)", 72),
]

Then there is this molecule:
Lookup: // lookup remaining at 24 h, 10 µM for CCCCC(=O)N[C@H]1CSSC[C@@H](C(N)=O)NC(=O)[C@H](CCC)NC(=O)[C@H]([C@@H](C)CC)NC(=O)[C@@H]2C[C@@H](O)CN2C(=O)[C@@H]2C[C@@H](O)CN2C(=O)[C@H](Cc2ccccc2)NC(=O)[C@H](Cc2ccc(O)cc2)NC(=O)[C@H](CCCCNC(=O)CN2CCN(CC(=O)O)CCN(CC(=O)O)CCN(CC(=O)O)CC2)NC(=O)[C@H](CCCNC(N)=O)NC1=O [UPAR-403] (Pentanoyl-C[Cit]K(DOTA)YF[Hyp][Hyp]I[Nva]C-NH2; disulfide 1-10)
Found: 95
